- Read-out: Interleukin-8 (IL8), CXCL8 (gene 3576)
- Test details: BSK_3C_IL8: BioMAP Diversity Plus: 3C Assay for Interleukin-8 (IL8) Biomarker Activity (AID 2283020)
- Condition set: primary human endothelial cells (HUVEC); actives raise or lower the signal
Activity calls are given as the source filed them. How the source made its calls: active means hit-call score of the fitted dose curve at least 0.9, where 1 is the maximum; inactive means score below 0.9.
Mark one answer only. Choices: active, inactive

(Q) Would you mind telling me which call this test gave `C=COC(=O)C(C)(C)CCCCCC` ?
(A) active

(Q) Would you mind telling me which call this test gave `COc1cccc(O)c1` ?
(A) inactive

(Q) Would you mind telling me which call this test gave `COC1=CC(=O)C[C@@H](C)[C@]12Oc1c(Cl)c(OC)cc(OC)c1C2=O` ?
(A) inactive

(Q) Would you mind telling me which call this test gave `CC[N+](CC)(CC)Cc1ccccc1` ?
(A) inactive

(Q) Would you mind telling me which call this test gave `CCCCCCCCCCCCOS(=O)(=O)O` ?
(A) inactive

(Q) Would you mind telling me which call this test gave `CC(C)(C)c1ccc(O)c(O)c1` ?
(A) inactive

(Q) Would you mind telling me which call this test gave `OCCN1CN(CCO)CN(CCO)C1` ?
(A) active

(Q) Would you mind telling me which call this test gave `Cc1cccc2c1ccc1ccccc12` ?
(A) inactive

###

- Tgt: Cellular tumor antigen p53 (Homo sapiens)
- Test details: TOX21_p53_BLA_p3_ratio: Tox21 HCT-116 p53 Agonism Beta-lactamase Assay, Ratio, Phase 3 (AID 2283596)
Inconclusive results are not listed. The source made the active and inactive calls. Rule for the calls: active = hit-call score of the fitted dose curve at least 0.9, where 1 is the maximum; inconclusive = response in the unintended direction; inactive = score below 0.9.
Mark one answer only. Choices: 1 for active, -1 for inactive

(Q) Would you mind telling me which call this test gave CCCCCCCCCC=CCC1CC(=O)OC1=O (stereo not given) ?
(A) -1

(Q) Would you mind telling me which call this test gave `C[C@]12CC[C@@H]3c4ccc(O)cc4CC[C@H]3[C@@H]1C[C@@H](O)[C@@H]2O` ?
(A) -1

(Q) Would you mind telling me which call this test gave `O=C1OC(=O)c2cc(-c3ccc4c(c3)C(=O)OC4=O)ccc21` ?
(A) -1

(Q) Would you mind telling me which call this test gave `CCC(=O)C=Cc1ccc(OC)cc1` ?
(A) -1

(Q) Would you mind telling me which call this test gave `O=S(=O)(O)c1ccc2cc(O)ccc2c1` ?
(A) -1

(Q) Would you mind telling me which call this test gave `NS(=O)(=O)O` ?
(A) -1

(Q) Would you mind telling me which call this test gave `CNNCc1ccc(C(=O)NC(C)C)cc1` ?
(A) -1

(Q) Would you mind telling me which call this test gave `CCOC(=O)CN[C@@H](C(=O)N1CC[C@H]1C(=O)NCc1ccc(/C(N)=N/O)cc1)C1CCCCC1` ?
(A) -1

(Q) Would you mind telling me which call this test gave `C=CC(=O)OCC(CO)(COCC(COC(=O)C=C)(COC(=O)C=C)COC(=O)C=C)COC(=O)C=C` ?
(A) -1

(Q) Would you mind telling me which call this test gave `CCCCc1oc2ccccc2c1C(=O)c1cc(I)c(OCCN(CC)CC)c(I)c1` ?
(A) -1

(Q) Would you mind telling me which call this test gave Cc1ccccc1C(OCCN(C)C)c1ccccc1 (stereo not given) ?
(A) -1

(Q) Would you mind telling me which call this test gave `CC(=O)CC(C)C` ?
(A) -1

(Q) Would you mind telling me which call this test gave `CCCCCCc1ccc(N)cc1` ?
(A) -1

(Q) Would you mind telling me which call this test gave `CC(C)(C)c1ccc(CCC=O)cc1` ?
(A) -1

(Q) Would you mind telling me which call this test gave `O=C(Nc1cccc([N+](=O)[O-])c1)c1cc2ccccc2cc1O` ?
(A) 1
